The reported measurements were obtained from PubChem BioAssay AID1259412.

- experimental-details: AOX inhibitors, oxygen consumption, profiling panel (AID 1259412)
- experimental-parameters: AOX-dependent respiration, measured here: O2 uptake, control condition (no AOX), at 500 µM, stronger effect = lower value
# O2 uptake (% of control) per entry
endpoint-label: O2 uptake (% of control) (%)

1) O=C(Nc1cccc(Br)c1)c1cccc(Br)c1 ... 81
2) Cc1cccc(C(=O)Nc2cccc(Br)c2)c1 ... 90.2
3) O=C(Nc1cccc(Cl)c1)c1cccc(Br)c1 ... 85
4) O=C(Nc1cccc(C(F)(F)F)c1)c1ccccc1I ... 79.2
5) O=C(Nc1ccc(N2CCOCC2)cc1)c1cccc(Br)c1 ... 100
6) O=C(Nc1ccccc1)c1cccc(F)c1 ... 103
7) O=C(Nc1ccccc1)c1cccc(I)c1 ... 87.7
8) COc1cccc(C(=O)Nc2cccc(Br)c2)c1 ... 85.8
9) O=C(Nc1cccc(I)c1)c1cccc(F)c1 ... 77.3
10) N#Cc1cccc(C(=O)Nc2ccccc2)c1 ... 105
11) NC(=O)c1ccccc1NC(=O)c1cccc(F)c1 ... 85.1
12) O=C(Nc1cccc([N+](=O)[O-])c1)c1cccc(I)c1 ... 93.5
13) O=C(Nc1cccc([N+](=O)[O-])c1)c1ccccc1 ... 95.6
